- TEST SYSTEM: ClfB(197–542) wildtype (Staphylococcus aureus)
- Construct: The fragment of the ClfB gene (corresponding 197–542 aa) was amplified by PCR; His-tag; made in house; host or cells: E. coli BL21
- ASSAY PROCEDURE: SPR (ProteOn XPR36) binding of ClfB(197–542) wild type to immobilized peptide 15 from Dermokine
- SETUP CONDITIONS: SPR ProteOn XPR36, peptide captured on NLC Sensor Chip (460 RU), 25°C, 10 mM HEPES pH 7.2, 150 mM NaCl; ClfB(197–542) injected at 87.5-700 µM; repeated three times; read-out: dissociation constant (KD)
Where no end group is shown, it is not given here.
QUANTITY KIND: Kd (µM)
Numbers only, in µM.

Reported Kd ( GQSGSSGSGSNGDNN [Derm15] ) = 2.37

====

Please respond with reported Kd for every item in the list.
- TEST SYSTEM: ClfB (Staphylococcus aureus)
- Construct: The fragment of the ClfB gene (corresponding 197–542 aa) was amplified by PCR; His-tag; made in house; host or cells: E. coli BL21
- Sequence (O86476 197-542): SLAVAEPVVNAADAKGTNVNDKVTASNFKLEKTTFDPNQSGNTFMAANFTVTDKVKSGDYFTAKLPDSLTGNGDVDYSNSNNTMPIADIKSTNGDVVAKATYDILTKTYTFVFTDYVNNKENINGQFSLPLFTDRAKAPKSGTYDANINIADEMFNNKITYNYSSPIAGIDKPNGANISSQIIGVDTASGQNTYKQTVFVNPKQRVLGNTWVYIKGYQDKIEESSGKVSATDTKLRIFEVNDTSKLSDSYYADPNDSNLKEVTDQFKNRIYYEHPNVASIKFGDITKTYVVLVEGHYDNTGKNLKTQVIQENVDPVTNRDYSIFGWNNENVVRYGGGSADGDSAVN
- ASSAY PROCEDURE: SPR (BIAcore T200) alanine scan of 9-residue GSR peptides and the 6-residue peptide on immobilized ClfB
- Format: binding
- SETUP CONDITIONS: SPR BIAcore T200, 10°C; ClfB amine-coupled (~5300 RU) on CM5 chip; peptides 31.25-2000 µM in 10 mM HEPES pH 7.4, 150 mM NaCl, 0.005% Tween 20; 30 µl/min; 1:1 Langmuir fit
Where no end group is shown, it is not given here.
Answers are plain numbers, in µM.

Some substances with known Kd results, for comparison:
GASGSGSNG [Peptide3] :: 1240
GSSASGSNG [Peptide5] :: 1140
GSSGSG [Peptide11] :: 833

Reported Kd ( GSSGSGSNA [Peptide10] ) = 1170
